Biological target: Lymphokine-activated killer T-cell-originated protein kinase (Homo sapiens, UniProt Q96KB5)
Sequence (Q96KB5 whole entry): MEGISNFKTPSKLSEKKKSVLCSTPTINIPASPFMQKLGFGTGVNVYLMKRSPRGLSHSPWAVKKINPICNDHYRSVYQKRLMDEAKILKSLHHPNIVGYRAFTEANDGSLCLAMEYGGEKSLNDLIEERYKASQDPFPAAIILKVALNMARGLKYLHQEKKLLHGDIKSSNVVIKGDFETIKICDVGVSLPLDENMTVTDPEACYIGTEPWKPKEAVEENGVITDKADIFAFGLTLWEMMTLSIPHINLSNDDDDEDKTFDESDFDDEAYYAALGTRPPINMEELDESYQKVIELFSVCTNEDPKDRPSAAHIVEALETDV
Assay: Kinase Assay
Details: pH 7.4; 25 °C
Entries whose IC50 is below 4 nM take Condition met; entries at or above 4 nM take Condition not met.

Look over these answered cases.
[[record]]
compound = "COc1cc(C)c2[nH]c(=O)c3sc(C)cc3c2c1-c1ccc([C@@H](C)CN)cc1"
assigned_label = "Condition not met"

[[record]]
compound = "COc1cc(C)c2[nH]c(=O)c3sc(F)cc3c2c1-c1ccc([C@@H](C)CN)cc1"
assigned_label = "Condition not met"

[[record]]
compound = "CC[C@H](N)c1ccc(-c2c(OC)ccc3[nH]c(=O)c4sccc4c23)cc1"
assigned_label = "Condition met"

[[record]]
compound = "NCC1CCN(Cc2ccc(-c3c(O)ccc4[nH]c(=O)c5sccc5c34)cc2F)CC1"
assigned_label = "Condition met"

[[record]]
compound = "CCN(CC)C(C)c1ccc(-c2c(O)ccc3[nH]c(=O)c4sccc4c23)cc1F (stereo not drawn)"
assigned_label = "Condition met"

[[record]]
compound = "CC(c1ccc(-c2cccc3[nH]c(=O)c4sccc4c23)cc1)N(C)C (stereo not drawn)"
assigned_label = "Condition not met"


Query string: Problem: For the compound CCC(CC)(CN)c1ccc(-c2c(O)ccc3[nH]c(=O)c4sccc4c23)cc1 , is IC50 under 4 nM?
Result string: Condition met

Query string: Problem: For the compound C[C@@H](NS(C)(=O)=O)c1ccc(-c2c(O)ccc3[nH]c(=O)c4sccc4c23)cc1 , is IC50 under 4 nM?
Result string: Condition met

Values were extracted from BindingDB's records for patent US8962648.
